Where these numbers come from: PubChem BioAssay (EPA / NIEHS)

Target: Transcriptional activator Myb (Homo sapiens)
Assay: ATG_Myb_CIS: Attagene CIS-FACTORIAL HepG2 Assay for human Myeloblastosis (Myb) Proto-Oncogene Transcription Factor (AID 2282986)
Conditions: HepG2 Attagene CIS-FACTORIAL Myb reporter transcription; actives raise or lower the signal
Active and inactive are the calls of the source. Rule for the calls: active = hit-call score of the fitted dose curve at least 0.9, where 1 is the maximum; inactive = score below 0.9.

- compound: "CC1(C)NC(=O)N(c2ccc([N+](=O)[O-])c(C(F)(F)F)c2)C1=O"
  outcome: "inactive"
- compound: "CC/C(=C(/CC)c1ccc(O)cc1)c1ccc(O)cc1"
  outcome: "inactive"
- compound: "NC(=O)c1nc(-c2cccc(-c3cc(F)ccc3OCC(F)(F)C(F)(F)F)c2)n[nH]1"
  outcome: "inactive"
- compound: "Oc1ccc2ccccc2c1"
  outcome: "inactive"
- compound: "O=C(O)Cc1cc(I)c(Oc2ccc(O)c(I)c2)c(I)c1"
  outcome: "inactive"
- compound: "C[C@]12CC[C@@H]3c4ccc(O)cc4CC[C@H]3[C@@H]1CC[C@H]2O"
  outcome: "inactive"
- compound: "O=C(OCCCCCCOC(=O)c1ccccc1)c1ccccc1"
  outcome: "inactive"
- compound: "CCCCCCCCCCCCO"
  outcome: "inactive"
- compound: "C[C@]12CC[C@@H]3c4ccc(O)cc4CC[C@H]3[C@@H]1CCC2=O"
  outcome: "inactive"
- compound: "O=C(O)c1ccccc1-n1cc(C(=O)O)c(=O)c2cc(Nc3c(F)cc(F)cc3Cl)c(Cl)cc21"
  outcome: "inactive"
- compound: "CC1=CC(=O)/C(=C(/C)O)C(=O)O1"
  outcome: "inactive"
- compound: "Clc1cc(Cl)c2c(c1)N=C1CCCCCN1C2"
  outcome: "inactive"
- compound: "COCC(C)OCC(C)OCC(C)O (stereo not given)"
  outcome: "inactive"
- compound: "CC(C)(c1cc(Br)c(O)c(Br)c1)c1cc(Br)c(O)c(Br)c1"
  outcome: "inactive"
- compound: "CCCCCCCCCC(=O)O"
  outcome: "inactive"
- compound: "CN1C(=O)CC[C@H]1c1cccnc1"
  outcome: "inactive"
- compound: "CN(C[C@@H](CC[N+]12CCC(C3CCCCC3)(CC1)CC2)c1ccc(Cl)c(Cl)c1)C(=O)c1cc(C(F)(F)F)cc(C(F)(F)F)c1"
  outcome: "inactive"
- compound: "O=c1ccc2ccccc2o1"
  outcome: "inactive"
- compound: "CCCCCCCC[Si](OCC)(OCC)OCC"
  outcome: "inactive"
- compound: "O=C(O)c1ccccc1C(=O)OCc1ccccc1"
  outcome: "inactive"
- compound: "CCCCCCCCN(C)CCCCCCCC"
  outcome: "inactive"
- compound: "CN(C)C(=O)C1(N2CCCCC2)CCN(CC[C@@]2(c3ccc(Cl)c(Cl)c3)CN(C(=O)c3ccccc3)CCO2)CC1"
  outcome: "inactive"
- compound: "NCc1cccc(C2CCN(C(=O)c3ccc(C#Cc4ccccc4F)o3)CC2)c1"
  outcome: "inactive"
- compound: "OCCO"
  outcome: "inactive"
- compound: "OC12N=C(c3ccccc3)SC1Cc1cc(Cl)ccc12 (stereo not given)"
  outcome: "inactive"

###

Read-out: matrix metalloproteinase-10 (MMP10), MMP10 (gene 4319)
Experiment: LTEA_HepaRG_MMP10: Life Technologies and Expression Analysis (LTEA) Assay for matrix metalloproteinase-10 (MMP10) using HepaRG (AID 2283517)
Details: mRNA level, 48 h; actives raise or lower the signal
Activity calls are given as the source filed them. How the source made its calls: active means hit-call score of the fitted dose curve at least 0.9, where 1 is the maximum; inactive means score below 0.9.
Labels: y = active, n = inactive

- item smiles: "CC(=O)N1CCN(c2ccc(OC[C@H]3CO[C@](Cn4ccnc4)(c4ccc(Cl)cc4Cl)O3)cc2)CC1"
  class name: "y"
- item smiles: "c1ccc(C[n+]2cccc3ccccc32)cc1"
  class name: "n"
- item smiles: "Clc1cc(Cl)c2c(c1)N=C1CCCCCN1C2"
  class name: "n"
- item smiles: "NC(=O)c1nc(-c2cccc(-c3cc(F)ccc3OCC(F)(F)C(F)(F)F)c2)n[nH]1"
  class name: "n"
- item smiles: "Cc1oc2c(NC(=O)c3c(Cl)cccc3Cl)cccc2c1C(C)(C)O"
  class name: "y"
- item smiles: "CN(C)c1ccc(C(=C2C=CC(=[N+](C)C)C=C2)c2ccc(N(C)C)cc2)cc1"
  class name: "y"
- item smiles: "Oc1ccc2ccccc2c1"
  class name: "n"
- item smiles: "O=C=NCCCCCCN=C=O"
  class name: "n"
- item smiles: "CCCCOC(=O)CC(CC(=O)OCCCC)(OC(C)=O)C(=O)OCCCC"
  class name: "n"
- item smiles: "CCCCCCCCN(C)CCCCCCCC"
  class name: "n"
- item smiles: "CC1(C)NC(=O)N(c2ccc([N+](=O)[O-])c(C(F)(F)F)c2)C1=O"
  class name: "n"
